tgt: Human PD-L1/PD-1 (Homo sapiens, UniProt Q9NZQ7)
Construct: TVMV protease cleavage site (C); made in house; host or cells: HEK293T cells
Sequence (Q9NZQ7 with tags, fused parts or gaps): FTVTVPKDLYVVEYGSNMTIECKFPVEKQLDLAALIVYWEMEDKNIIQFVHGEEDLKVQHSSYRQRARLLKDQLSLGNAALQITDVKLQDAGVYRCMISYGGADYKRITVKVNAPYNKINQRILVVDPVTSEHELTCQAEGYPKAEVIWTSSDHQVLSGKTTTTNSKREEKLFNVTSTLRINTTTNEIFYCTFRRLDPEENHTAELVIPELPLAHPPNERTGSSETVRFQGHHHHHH
assay_notes: HTRF Human PD-L1/PD-1 binding assay (PD-1-Ig/PD-L1-His)
condition_set: PD-L1-His 10 nM, PD-1-Ig 20 nM; class symbol; read-out: HTRF Human PD-L1/PD-1 Binding Assay IC50 Range
pIC50: −log10 of the molar value. Where a SMILES comes first, the peptide text is derived from it. Bridges are numbered along the chain shown (N, C = ends). [ ]: non-standard residue; d: D form. Phe(4-F) = N[C@@H](Cc1ccc(F)cc1)C(=O)O; NMeF = CN[C@@H](Cc1ccccc1)C(=O)O; NMeNle = CCCC[C@H](NC)C(=O)O; dPip = O=C(O)[C@H]1CCCCN1; Orn = NCCC[C@H](N)C(=O)O
endpoint_name: pIC50

Request: Please report the recorded pIC50 for CCCC[C@H]1C(=O)N[C@@H](CCC(N)=O)C(=O)N2CCCC[C@@H]2C(=O)N[C@@H](Cc2c[nH]c3ccccc23)C(=O)N[C@@H](Cc2ccc(O)cc2)C(=O)N[C@@H](CCCN)C(=O)N[C@H](C(=O)NCC(N)=O)CSCC(=O)N[C@@H](Cc2ccc(F)cc2)C(=O)N(C)[C@@H](Cc2ccccc2)C(=O)N(C)[C@@H](CCCC)C(=O)N2CCC[C@@H]2C(=O)N[C@@H](CC(=O)O)C(=O)N[C@@H](C(C)C)C(=O)N1C [Example 9218] ({CH2CO}-[Phe(4-F)][NMeF][NMeNle][dP]DV[NMeNle]Q[dPip]WY[Orn]CG-NH2; thioether N-13) .
Result: 7.00 to 8.00

---

tgt: Human PD-L1/PD-1 (Homo sapiens)
Construct: TVMV protease cleavage site (C); made in house; host or cells: HEK293T cells
assay_notes: HTRF Human PD-L1/PD-1 binding assay (PD-1-Ig/PD-L1-His)
condition_set: PD-L1-His 10 nM, PD-1-Ig 20 nM; class symbol; read-out: HTRF Human PD-L1/PD-1 Binding Assay IC50 Range
pIC50: −log10 of the molar value. Where a SMILES comes first, the peptide text is derived from it. Bridges are numbered along the chain shown (N, C = ends). [ ]: non-standard residue; d: D form. Phe(4-F) = N[C@@H](Cc1ccc(F)cc1)C(=O)O; NMeF = CN[C@@H](Cc1ccccc1)C(=O)O; NMehSer = CN[C@@H](CCO)C(=O)O; NMeNle = CCCC[C@H](NC)C(=O)O; dPip = O=C(O)[C@H]1CCCCN1
endpoint_name: pIC50

CCCC[C@H]1C(=O)N2CCC[C@@H]2C(=O)N[C@@H](CC(=O)O)C(=O)N[C@@H](C(C)C)C(=O)N(C)[C@@H](CCOC)C(=O)N[C@@H](Cc2ccc(O)cc2)C(=O)N2CCC[C@@H]2C(=O)N[C@@H](Cc2c[nH]c3ccccc23)C(=O)N[C@@H](Cc2ccc(O)cc2)C(=O)N[C@@H](CC(C)C)C(=O)N[C@H](C(=O)NCC(N)=O)CSCC(=O)N[C@@H](Cc2ccc(F)cc2)C(=O)N(C)[C@@H](Cc2ccccc2)C(=O)N1C [Example 9219] ({CH2CO}-[Phe(4-F)][NMeF][NMeNle][dP]DV[NMehSer](Me)Y[dP]WYLCG-NH2; thioether N-13)    6.00 to 7.00

For the next question, use this compound.
Request: Please report the recorded pIC50 for CCCC[C@H]1C(=O)N2CCC[C@@H]2C(=O)N[C@@H](CC(=O)O)C(=O)N[C@@H](C(C)C)C(=O)N(C)[C@@H](CCOC)C(=O)N[C@@H](CCC(N)=O)C(=O)N2CCCC[C@@H]2C(=O)N[C@@H](Cc2c[nH]c3ccccc23)C(=O)N[C@@H](Cc2ccc(O)cc2)C(=O)N[C@@H](CC(C)C)C(=O)N[C@H](C(=O)NCC(N)=O)CSCC(=O)N[C@@H](Cc2ccc(F)cc2)C(=O)N(C)[C@@H](Cc2ccccc2)C(=O)N1C [Example 9224] ({CH2CO}-[Phe(4-F)][NMeF][NMeNle][dP]DV[NMehSer](Me)Q[dPip]WYLCG-NH2; thioether N-13) .
Result: 6.00 to 7.00
